tested on: FM3A; assay: Selectivity ratio of cytotoxicity against FM3A cells to antimalarial activity against Plasmodium falciparum FCR3; format: functional, Mus musculus
QUANTITY: Selectivity
Lab note: record the figure alone, no unit after it.

Examples from the recorded data:
INSERT INTO measurements (molecule, quantity, experimental_result) VALUES
  ('CC1(C)[C@@H](n2cnc3ccccc3c2=O)C(=O)C[C@@H]2[C@@H](O)CCCN21', 'Selectivity', 238),
  ('CC(=O)O[C@H]1CCCN2[C@@H]1CC(=O)[C@H](n1cnc3ccccc3c1=O)C2(C)C', 'Selectivity', 361),
  ('O=c1c2ccccc2ncn1C[C@@H]1C[C@@H]2[C@@H](O)CCCN2CO1', 'Selectivity', 1027),
  ('C[C@@H]1CC[C@H]2[C@@H](C)C(=O)O[C@@H]3O[C@@]4(C)CC[C@@H]1[C@]32OO4 [ARTEMISININ]', 'Selectivity', 1000);

Any idea what Selectivity was measured for O=c1c2ccccc2ncn1C[C@@H](O)CC1NCCC[C@@H]1O (some centres undefined) ?
750
